Biological target: Vascular endothelial growth factor receptor 1 (Homo sapiens, UniProt P17948)
Sequence (P17948 whole entry): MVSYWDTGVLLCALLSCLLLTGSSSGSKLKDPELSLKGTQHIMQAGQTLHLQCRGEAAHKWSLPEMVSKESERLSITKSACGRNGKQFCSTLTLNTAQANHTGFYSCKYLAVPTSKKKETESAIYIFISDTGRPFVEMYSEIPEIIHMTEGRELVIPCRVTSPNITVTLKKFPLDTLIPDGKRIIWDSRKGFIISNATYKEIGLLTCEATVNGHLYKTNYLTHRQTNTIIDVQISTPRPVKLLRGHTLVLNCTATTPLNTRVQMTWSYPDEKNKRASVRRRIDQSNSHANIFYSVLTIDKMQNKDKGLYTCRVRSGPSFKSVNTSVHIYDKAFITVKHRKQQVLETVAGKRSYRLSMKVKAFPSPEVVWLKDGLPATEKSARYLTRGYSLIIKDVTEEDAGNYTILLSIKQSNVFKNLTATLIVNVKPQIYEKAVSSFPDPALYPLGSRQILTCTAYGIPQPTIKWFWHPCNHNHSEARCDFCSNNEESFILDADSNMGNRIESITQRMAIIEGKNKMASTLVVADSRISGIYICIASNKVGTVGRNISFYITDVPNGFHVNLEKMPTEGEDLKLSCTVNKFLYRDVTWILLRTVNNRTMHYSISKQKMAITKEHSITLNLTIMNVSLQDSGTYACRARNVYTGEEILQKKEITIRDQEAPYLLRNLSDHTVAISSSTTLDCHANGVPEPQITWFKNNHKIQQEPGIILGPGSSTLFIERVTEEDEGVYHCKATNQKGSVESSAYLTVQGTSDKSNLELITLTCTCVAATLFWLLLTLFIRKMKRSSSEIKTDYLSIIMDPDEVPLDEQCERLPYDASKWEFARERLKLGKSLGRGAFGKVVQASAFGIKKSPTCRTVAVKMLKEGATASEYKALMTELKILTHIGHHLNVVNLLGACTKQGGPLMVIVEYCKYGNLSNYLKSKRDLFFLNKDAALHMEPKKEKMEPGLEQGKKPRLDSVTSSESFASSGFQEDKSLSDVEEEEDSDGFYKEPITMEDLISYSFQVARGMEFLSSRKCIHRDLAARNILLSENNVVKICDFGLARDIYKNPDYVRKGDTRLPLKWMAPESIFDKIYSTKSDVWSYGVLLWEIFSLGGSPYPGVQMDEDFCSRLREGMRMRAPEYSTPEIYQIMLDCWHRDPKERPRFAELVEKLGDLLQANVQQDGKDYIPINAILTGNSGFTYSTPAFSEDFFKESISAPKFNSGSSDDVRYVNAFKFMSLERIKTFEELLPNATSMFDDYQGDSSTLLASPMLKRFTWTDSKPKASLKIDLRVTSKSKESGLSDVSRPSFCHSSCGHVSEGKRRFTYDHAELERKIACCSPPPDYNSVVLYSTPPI
observable: IC50 (nM)
Give the quantity in nM, number only.

Can you share its IC50? I mean this compound: Cc1ccc2oc(-c3c4c(N)n[nH]c(=O)c4nn3-c3ccc(NC(=O)/C=C/CN(C)C)cc3)c(C)c2c1
3

* * *

System: BT-549
Assay: Antiproliferative activity against human BT-549 cells assessed as inhibition of cell proliferation incubated for 72 hrs by MTT assay
Format: functional, cell-based
Settings: BT-549, 72 h
observable: IC50 (µM)
Report the value in µM with no unit label.

State the recorded IC50 for this entry: CN(C)S(=O)(=O)Nc1cccc(-c2cnn(-c3ccc(C(F)(F)F)cc3)c2)c1
3.44

* * *

Biological target: Vascular endothelial growth factor receptor 2 (Homo sapiens, UniProt P35968)
Sequence (P35968 whole entry): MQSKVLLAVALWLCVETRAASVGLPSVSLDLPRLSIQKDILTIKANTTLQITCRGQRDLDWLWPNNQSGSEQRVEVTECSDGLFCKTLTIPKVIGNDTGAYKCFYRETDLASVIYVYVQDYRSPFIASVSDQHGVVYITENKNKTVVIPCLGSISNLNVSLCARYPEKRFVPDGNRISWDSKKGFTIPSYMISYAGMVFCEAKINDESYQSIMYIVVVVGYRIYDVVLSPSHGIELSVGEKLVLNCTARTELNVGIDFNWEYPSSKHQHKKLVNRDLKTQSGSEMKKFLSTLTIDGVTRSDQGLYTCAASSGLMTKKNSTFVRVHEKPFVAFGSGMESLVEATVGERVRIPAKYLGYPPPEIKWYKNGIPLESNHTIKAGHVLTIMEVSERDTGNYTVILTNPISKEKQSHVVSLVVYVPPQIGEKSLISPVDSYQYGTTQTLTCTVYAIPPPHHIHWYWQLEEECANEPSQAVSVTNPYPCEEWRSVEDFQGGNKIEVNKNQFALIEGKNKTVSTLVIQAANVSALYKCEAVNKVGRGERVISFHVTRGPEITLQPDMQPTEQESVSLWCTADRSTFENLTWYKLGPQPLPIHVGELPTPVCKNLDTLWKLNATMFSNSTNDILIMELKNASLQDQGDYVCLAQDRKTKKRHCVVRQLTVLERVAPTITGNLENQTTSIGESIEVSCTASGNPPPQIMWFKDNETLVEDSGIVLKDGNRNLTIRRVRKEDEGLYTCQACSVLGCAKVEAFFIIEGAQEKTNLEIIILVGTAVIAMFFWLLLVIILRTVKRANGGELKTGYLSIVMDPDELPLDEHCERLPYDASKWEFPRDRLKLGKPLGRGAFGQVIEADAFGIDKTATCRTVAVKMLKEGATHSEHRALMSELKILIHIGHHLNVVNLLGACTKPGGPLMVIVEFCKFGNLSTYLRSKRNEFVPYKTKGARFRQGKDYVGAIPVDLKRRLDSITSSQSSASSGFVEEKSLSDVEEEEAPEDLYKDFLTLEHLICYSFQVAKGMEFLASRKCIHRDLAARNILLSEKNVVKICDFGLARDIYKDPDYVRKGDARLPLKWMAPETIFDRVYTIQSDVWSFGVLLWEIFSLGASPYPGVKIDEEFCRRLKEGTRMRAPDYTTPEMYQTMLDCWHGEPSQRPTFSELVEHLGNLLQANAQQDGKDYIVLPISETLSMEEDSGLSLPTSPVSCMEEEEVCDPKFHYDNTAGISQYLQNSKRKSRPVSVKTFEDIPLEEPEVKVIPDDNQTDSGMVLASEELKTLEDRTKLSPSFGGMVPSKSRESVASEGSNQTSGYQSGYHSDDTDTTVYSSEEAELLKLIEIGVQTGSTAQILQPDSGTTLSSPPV
observable: IC50 (nM)
Reply numerically in nM, unit not repeated.

Could you share which IC50 value was measured for Cc1ccc2oc(-c3c4c(N)n[nH]c(=O)c4nn3-c3ccc(NC(=O)/C=C/CN(C)C)cc3)c(C)c2c1 ?
1.9

* * *

Test system: Panc02
Experiment: Antiproliferative activity against mouse Panc02 cells measured after 72 hrs by MTT assay
Type: functional, cell-based
Details: Panc02, 72 h
observable: IC50

I have this compound here, Clc1ccccc1C(c1ccccc1)(c1ccc(CCC[P+](c2ccccc2)(c2ccccc2)c2ccccc2)cc1)n1cccn1 (stereo unspecified) , and I need its recorded IC50.
1.31 µM

* * *

Assay: Tmax in mouse at 40 mg/kg, po
Format: ADME, organism-based
Conditions: in vivo
observable: Tmax (h)
Just the number please, in h, no unit attached.

Need Tmax, item O=C(Nc1ccc(OC(F)(F)Cl)cc1)c1cnc(N2CC[C@@H](O)C2)c(-c2ccn[nH]2)c1
2.5

* * *

Target: Heat shock protein HSP 90-beta (Homo sapiens, UniProt P08238)
Sequence (P08238 whole entry): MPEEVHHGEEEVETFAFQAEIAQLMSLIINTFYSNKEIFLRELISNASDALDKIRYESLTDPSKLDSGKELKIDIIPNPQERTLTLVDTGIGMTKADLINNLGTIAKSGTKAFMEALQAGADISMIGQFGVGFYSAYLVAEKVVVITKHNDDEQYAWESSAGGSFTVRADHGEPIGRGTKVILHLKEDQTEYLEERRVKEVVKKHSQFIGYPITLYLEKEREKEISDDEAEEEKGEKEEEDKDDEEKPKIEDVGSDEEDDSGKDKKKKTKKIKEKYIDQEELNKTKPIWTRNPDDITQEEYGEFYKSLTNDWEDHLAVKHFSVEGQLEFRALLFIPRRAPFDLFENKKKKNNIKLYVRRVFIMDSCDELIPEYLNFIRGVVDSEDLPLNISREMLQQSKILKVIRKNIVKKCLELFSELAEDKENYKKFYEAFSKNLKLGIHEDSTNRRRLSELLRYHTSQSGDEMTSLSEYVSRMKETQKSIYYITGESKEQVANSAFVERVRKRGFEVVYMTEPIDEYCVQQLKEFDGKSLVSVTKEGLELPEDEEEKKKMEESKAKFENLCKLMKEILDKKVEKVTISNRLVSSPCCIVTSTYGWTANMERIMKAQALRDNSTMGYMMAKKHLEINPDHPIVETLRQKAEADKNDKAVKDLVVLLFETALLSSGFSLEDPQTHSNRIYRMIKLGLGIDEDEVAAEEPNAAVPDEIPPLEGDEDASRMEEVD
Test: Inhibition of human recombinant HSP90beta expressed in Escherichia coli BL21 (DE3) incubated for 12 hrs
observable: pIC50
Formally, pIC50 is defined as -log10 of the concentration c, with c in mol/L.

Could you tell me which pIC50 is on file for CCc1cc(C(N)=O)ccc1-n1nc(C(C)C)c2c(-n3cnc(-c4cnn(C)c4)c3)ccnc21 ?
7.67

* * *

System: PANC-1
Assay: Antiproliferative activity against human PANC-1 cells assessed as reduction in cell growth incubated for 72 hrs by SRB assay
Format: functional, cell-based
Conditions: PANC-1, 72 h
observable: pIC50
Bear in mind: pIC50 is minus log10 of a mol/L concentration; give just that figure.

Form field: reported pIC50 of CCOc1ccc(Oc2ccc(C3=NN(C4=NC(=O)CS4)C(c4cc(O)c(O)c(Br)c4Br)C3)cc2)cc1 (stereo unspecified)
5.58

* * *

Molecular target: Cyclin-dependent kinase 4 (Homo sapiens)
Sequence (P11802 whole entry): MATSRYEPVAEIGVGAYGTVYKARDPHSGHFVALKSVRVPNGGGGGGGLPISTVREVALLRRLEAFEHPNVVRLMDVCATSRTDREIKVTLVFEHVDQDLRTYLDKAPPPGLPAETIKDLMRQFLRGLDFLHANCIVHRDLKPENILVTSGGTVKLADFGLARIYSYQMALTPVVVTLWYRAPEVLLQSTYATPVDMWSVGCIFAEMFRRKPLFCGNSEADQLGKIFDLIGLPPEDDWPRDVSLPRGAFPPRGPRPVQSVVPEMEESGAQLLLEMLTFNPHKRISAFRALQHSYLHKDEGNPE
observable: pIC50
pIC50 here: minus log base 10 of the concentration, concentration in moles per litre.

Look up pIC50: CCN1CCN(c2ccc(Nc3ncc(F)c(-c4cnc5cnn(C(C)C)c5c4)n3)cc2OC)CC1
8.15

* * *

Assay: Antiproliferative activity against human 95-D cells assessed as reduction in cell growth incubated for 72 hrs by SRB assay
Format: functional, cell-based
observable: IC50 (µM)
Response body: numeric value in µM, unit text excluded.

Query (molecule): CCOc1ccc(Oc2ccc(C3=NN(C4=NC(=O)CS4)C(c4cc(O)c(O)c(Br)c4Br)C3)cc2)cc1 (stereo unspecified) ; field requested: IC50
2.64

* * *

Assay: Oral bioavailability in rat
Settings: in vivo
observable: bioavailability (%)
Numeric only. Scale: %

Param item = COc1cc(OC)c(F)c(COc2cnc(Nc3cnn(CCO)c3)nc2)c1F ; retrieve measured bioavailability.
76.1

* * *

Test system: HT-29
Assay: Antiproliferative activity against human HT-29 cells assessed as reduction in cell viability incubated for 72 hrs by MTT assay
Assay type: functional, cell-based
Details: HT-29, 72 h
observable: IC50 (nM)
State the answer as a number, implicitly in nM.

Could you share which IC50 value was measured for COc1cc(/C=C2\CCCN3C(=O)C4C=NN(C)C4N=C23)cc(OC)c1OC (stereo unspecified) ?
30

* * *

System: MDA-MB-453
Assay: Antiproliferative activity against human MDA-MB-453 cells assessed as reduction in cell viability incubated for 72 hrs by MTT assay
Assay type: functional, cell-based
Conditions: MDA-MB-453, 72 h
observable: IC50 (µM)
Kindly answer with a numeric value in µM, unit omitted.

Please state recorded IC50 (tested on MDA-MB-453) of CN(C)S(=O)(=O)Nc1cccc(-c2cnn(-c3ccc(C(F)(F)F)cc3)c2)c1
3.44

* * *

Assay: Oral bioavailability in mouse at 1 mg/kg
Format: ADME, organism-based
Conditions: in vivo
observable: bioavailability (%)
Just the number please, in %, no unit attached.

What measured bioavailability goes with COc1cc(/C=C2\CCCN3C(=O)C4C=NN(C)C4N=C23)cc(OC)c1OC (stereo unspecified) ?
78.6

* * *

Assay: Cmax in mouse at 1 mg/kg, sc
Assay type: ADME, organism-based
Conditions: in vivo
observable: Cmax
Provide the measurement as a number trailed by its unit.

Looking for the measured Cmax of COc1cc(/C=C2\CCCN3C(=O)C4C=NN(C)C4N=C23)cc(OC)c1OC (stereo unspecified) , can you help?
68.8 ng/mL

* * *

Assay: Cytotoxicity against human NCM460 cells assessed as reduction in cell viability incubated for 48 hrs by MTT assay
Type: toxicity, cell-based
observable: IC50 at 48 h (µM)
Give a bare numeral; the unit µM is implied.

Which IC50 at 48 h value belongs to CCOc1ccc(Oc2ccc(C3=NN(C4=NC(=O)CS4)C(c4cc(O)c(O)c(Br)c4Br)C3)cc2)cc1 (stereo unspecified) ?
27.1

* * *

Assay: AUC (0 to infinity) in CD-1 mouse at 3 mg/kg, ip measured after 24 hrs by LC-MS/MS analysis
Type: ADME, organism-based
Settings: in vivo
observable: AUC (ng·h/mL)
Report only the number, with the unit ng·h/mL understood.

Entry Cc1ccc2oc(-c3c4c(N)n[nH]c(=O)c4nn3-c3ccc(NC(=O)/C=C/CN(C)C)cc3)c(C)c2c1 : reported AUC = ?
704

* * *

Assay: Cytotoxicity against human KOB cells assessed as cell growth inhibition incubated for 72 hrs by MTT assay
Format: functional, cell-based
observable: IC50 (nM)
Please state the figure in nM; there is no need to write the unit.

Looking for the measured IC50 of CCc1cc(C(N)=O)ccc1-n1nc(C(C)C)c2c(-n3cnc(-c4cnn(C)c4)c3)ccnc21 , can you help?
376

* * *

System: MDA-MB-231
Assay: Antiproliferative activity against human MDA-MB-231 cells assessed as reduction in cell growth incubated for 72 hrs by SRB assay
Assay type: functional, cell-based
Details: MDA-MB-231, 72 h
observable: pIC50
Reminder that pIC50 is minus the log10 of a molar concentration.

Record request: pIC50 value, item CCOc1ccc(Oc2ccc(C3=NN(C4=NC(=O)CS4)C(c4cc(O)c(O)c(Br)c4Br)C3)cc2)cc1 (stereo unspecified)
5.58

* * *

Target: Ubiquitin carboxyl-terminal hydrolase 8 (Homo sapiens)
Sequence (P40818 whole entry): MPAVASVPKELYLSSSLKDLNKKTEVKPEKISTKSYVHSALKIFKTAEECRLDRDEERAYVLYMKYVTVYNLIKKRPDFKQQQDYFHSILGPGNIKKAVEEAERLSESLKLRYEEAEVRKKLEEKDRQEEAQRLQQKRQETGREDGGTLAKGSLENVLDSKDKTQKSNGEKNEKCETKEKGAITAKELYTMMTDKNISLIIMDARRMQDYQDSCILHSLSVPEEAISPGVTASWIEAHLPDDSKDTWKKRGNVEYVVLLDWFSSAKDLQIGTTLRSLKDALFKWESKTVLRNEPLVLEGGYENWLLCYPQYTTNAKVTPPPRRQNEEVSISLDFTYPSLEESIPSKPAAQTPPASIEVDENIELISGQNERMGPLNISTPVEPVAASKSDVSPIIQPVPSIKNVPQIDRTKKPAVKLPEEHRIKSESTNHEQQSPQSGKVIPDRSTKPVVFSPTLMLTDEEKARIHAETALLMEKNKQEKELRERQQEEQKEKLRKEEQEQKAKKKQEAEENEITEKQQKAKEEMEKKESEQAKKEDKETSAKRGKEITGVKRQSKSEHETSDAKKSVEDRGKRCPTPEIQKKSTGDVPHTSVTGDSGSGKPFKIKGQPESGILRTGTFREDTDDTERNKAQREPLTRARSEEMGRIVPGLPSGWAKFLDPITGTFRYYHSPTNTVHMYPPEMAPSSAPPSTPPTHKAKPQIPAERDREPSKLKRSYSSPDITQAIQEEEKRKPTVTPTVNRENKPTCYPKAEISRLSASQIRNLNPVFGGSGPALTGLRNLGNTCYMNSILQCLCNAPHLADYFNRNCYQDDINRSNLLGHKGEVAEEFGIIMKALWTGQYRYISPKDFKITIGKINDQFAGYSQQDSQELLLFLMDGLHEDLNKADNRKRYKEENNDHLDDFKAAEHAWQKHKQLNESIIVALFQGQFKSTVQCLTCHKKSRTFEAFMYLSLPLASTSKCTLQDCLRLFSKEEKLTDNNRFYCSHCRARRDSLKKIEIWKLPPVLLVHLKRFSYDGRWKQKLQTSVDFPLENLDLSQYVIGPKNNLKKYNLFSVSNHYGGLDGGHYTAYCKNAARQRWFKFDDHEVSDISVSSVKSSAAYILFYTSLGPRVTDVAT
observable: pIC50
Entry type: numeric. Quantity: pIC50, the -log10 of concentration in molar units.

Entry Brc1ccc(-n2nc(-c3cccnc3)cc2-c2ccccc2)cc1 has what pIC50?
5.92

Every entry's value here was drawn from ChEMBL document CHEMBL5620346.
